Where do the numbers come from? From patent US20250145596A1.

Target: GLP-1 Receptor (Homo sapiens)
Sequence (P43220 24-463): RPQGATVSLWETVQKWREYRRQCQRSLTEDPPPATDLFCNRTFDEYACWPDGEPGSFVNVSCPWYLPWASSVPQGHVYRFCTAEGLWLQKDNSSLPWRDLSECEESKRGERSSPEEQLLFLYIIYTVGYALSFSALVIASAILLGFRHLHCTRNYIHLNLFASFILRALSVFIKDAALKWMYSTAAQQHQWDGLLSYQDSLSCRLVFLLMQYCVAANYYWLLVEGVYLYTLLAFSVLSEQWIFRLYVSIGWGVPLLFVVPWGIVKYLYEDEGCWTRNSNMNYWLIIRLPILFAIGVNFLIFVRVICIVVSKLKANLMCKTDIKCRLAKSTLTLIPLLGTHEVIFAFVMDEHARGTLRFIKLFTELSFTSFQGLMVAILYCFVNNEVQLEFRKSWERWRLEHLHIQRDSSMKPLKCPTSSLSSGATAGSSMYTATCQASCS
Experiment: GLP-1R agonist cAMP stimulation assay
Details: HEK293/CRE-Luc cell line stably expressing the GLP-1 Receptor; 30 min at 37° C.; cAMP dynamic 2 Kit
Quick reference: EC50 of the listed items.

Worked examples follow.
CCS(=O)(=O)Cc1cc(-c2nnc(C(F)(F)F)[nH]2)cnc1CN1CCC(c2cccc3c2O[C@@](C)(c2ccc(Cl)cc2F)O3)CC1 :: < 1 nM
Cc1cc(Cl)ccc1C1(C)Oc2cccc(C3CCN(Cc4ncc(-c5nnc(C(F)(F)F)[nH]5)cc4CC4(C#N)CC4)CC3)c2O1 (stereo not drawn) :: < 1 nM

// field: EC50; key: Cc1cc(-c2cn(C)nn2)cnc1CN1CCC(c2cccc3c2OC(C)(c2ccc(Cl)cc2F)O3)CC1 (stereo not drawn) ; value = 1 to 100 nM

// field: EC50; key: `Cc1cc(-c2noc(=O)[nH]2)nnc1CN1CCC(c2cccc3c2O[C@@](C)(c2ccc(Cl)cc2F)O3)CC1` ; value = 1 to 100 nM

// field: EC50; key: `Cc1cc(-c2nnn[nH]2)nnc1CN1CCC(c2cccc3c2O[C@@](C)(c2ccc(Cl)cc2F)O3)CC1` ; value = 1 to 100 nM

// field: EC50; key: `N#CC1(Cc2cc(-c3nnc(C(F)(F)F)[nH]3)cnc2CN2CC=C(c3ccc(F)c(OCc4ccc(Cl)cc4F)c3)CC2)CC1` ; value = 1 to 100 nM
